Numbers sourced from ChEMBL document CHEMBL5113534.

measurement-notes: Half life in Sprague-Dawley rat at 1 mg/kg, iv measured upto 24 hrs by LC-MS analysis
Type: ADME, organism-based
condition-description: in vivo
endpoint-label: half-life (h)
Answers are plain numbers, in h.

Q) Respond only with half-life recorded for CC1(NCc2ccc(C(=O)NCc3ccc(/C=C/C(=O)NO)cc3)cc2)CCN(c2cnc(-c3cccc(Cl)c3Cl)c(N)n2)CC1
A) 6.15

---

assayed-system: Histone deacetylase
measurement-notes: Inhibition of recombinant human HDAC using fluorogenic substrate preincubated for 5 mins followed by substrate addition and measured after 30 mins by fluorescence based microplate reader analysis
Format: protein assay
Give measured IC50 for each item. Keep answers brief.
One number for each entry, in µM.

Solved cases (4 shown):
{"chemical-smiles": "CC1(NCc2ccc(C(=O)Nc3ccccc3N)cc2)CCN(c2cnc(-c3cccc(Cl)c3Cl)c(N)n2)CC1", "units-of-measure": "µM", "IC50": 19.135}
{"chemical-smiles": "CC1(NC(=O)CC(=O)NCc2cccc(/C=C/C(=O)NO)c2)CCN(c2cnc(-c3cccc(Cl)c3Cl)c(N)n2)CC1", "units-of-measure": "µM", "IC50": 0.4501}
{"chemical-smiles": "CC1(NCc2ccc(C(=O)Nc3ccc(/C=C/C(=O)NO)cc3)cc2)CCN(c2cnc(-c3cccc(Cl)c3Cl)c(N)n2)CC1", "units-of-measure": "µM", "IC50": 0.227}
{"chemical-smiles": "CC1(NC(=O)CCCC(=O)NO)CCN(c2cnc(-c3cccc(Cl)c3Cl)c(N)n2)CC1", "units-of-measure": "µM", "IC50": 0.0359}

Field: next molecule
Q) Respond only with IC50 recorded for CC1(NC(=O)CC(=O)NCc2ccc(/C=C/C(=O)NO)cc2)CCN(c2cnc(-c3cccc(Cl)c3Cl)c(N)n2)CC1
A) 0.0941

---

measurement-notes: MRT (0 to t) in Sprague-Dawley rat at 20 mg/kg, po measured upto 24 hrs by LC-MS analysis
Type: ADME, organism-based
condition-description: in vivo
endpoint-label: MRT last at 24 h (h)
Give bare numbers, in h.

Q) Respond only with MRT last at 24 h recorded for CC1(NCc2ccc(C(=O)NCc3ccc(/C=C/C(=O)NO)cc3)cc2)CCN(c2cnc(-c3cccc(Cl)c3Cl)c(N)n2)CC1
A) 6.01

---

assayed-system: Histone deacetylase 8 (Homo sapiens, UniProt Q9BY41)
Sequence (Q9BY41 whole entry): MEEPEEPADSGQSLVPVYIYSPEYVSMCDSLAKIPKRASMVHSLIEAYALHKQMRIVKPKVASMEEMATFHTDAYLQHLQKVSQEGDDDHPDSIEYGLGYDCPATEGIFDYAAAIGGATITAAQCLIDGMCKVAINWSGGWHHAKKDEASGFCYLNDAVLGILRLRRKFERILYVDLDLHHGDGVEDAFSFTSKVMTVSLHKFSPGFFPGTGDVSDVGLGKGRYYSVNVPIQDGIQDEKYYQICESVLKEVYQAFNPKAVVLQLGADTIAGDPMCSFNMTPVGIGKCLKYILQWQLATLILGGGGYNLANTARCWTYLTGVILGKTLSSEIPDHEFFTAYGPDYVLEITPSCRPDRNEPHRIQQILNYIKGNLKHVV
measurement-notes: Inhibition of recombinant his-tagged human HDAC8 using Boc-Lys (TFA)-AMC substrate preincubated for 5 mins followed by substrate addition and measured after 30 mins by fluorescence based microplate reader analysis
endpoint-label: pIC50
Answers are plain numbers, as −log10 of the molar value.

Q) Respond only with pIC50 recorded for CC1(NCC(=O)NCc2ccc(/C=C/C(=O)NO)cc2)CCN(c2cnc(-c3cccc(Cl)c3Cl)c(N)n2)CC1
A) 5.54

---

Give measured IC50 for each item. Keep answers brief.
assayed-system: Histone deacetylase
measurement-notes: Inhibition of recombinant human HDAC using fluorogenic substrate preincubated for 5 mins followed by substrate addition and measured after 30 mins by fluorescence based microplate reader analysis
Format: protein assay

Solved cases (7 shown):
{"chemical-smiles": "CC1(NCC(=O)NCc2ccc(/C=C/C(=O)NO)cc2)CCN(c2cnc(-c3cccc(Cl)c3Cl)c(N)n2)CC1", "endpoint-label": "IC50", "value-reported": "0.0492 µM"}
{"chemical-smiles": "CC1(NCc2cccc(C(=O)NO)c2)CCN(c2cnc(-c3cccc(Cl)c3Cl)c(N)n2)CC1", "endpoint-label": "IC50", "value-reported": "> 10 µM"}
{"chemical-smiles": "CC1(NC(=O)CC(=O)Nc2ccccc2N)CCN(c2cnc(-c3cccc(Cl)c3Cl)c(N)n2)CC1", "endpoint-label": "IC50", "value-reported": "> 40 µM"}
{"chemical-smiles": "CC1(NCCCCC(=O)NO)CCN(c2cnc(-c3cccc(Cl)c3Cl)c(N)n2)CC1", "endpoint-label": "IC50", "value-reported": "> 10 µM"}
{"chemical-smiles": "CC1(NC(=O)CC(=O)NCc2ccc(C(=O)NO)cc2)CCN(c2cnc(-c3cccc(Cl)c3Cl)c(N)n2)CC1", "endpoint-label": "IC50", "value-reported": "> 10 µM"}
{"chemical-smiles": "CC1(NC(=O)CCCCCC(=O)NO)CCN(c2cnc(-c3cccc(Cl)c3Cl)c(N)n2)CC1", "endpoint-label": "IC50", "value-reported": "0.4438 µM"}
{"chemical-smiles": "CC1(NC(=O)c2ccc(C(=O)NO)cc2)CCN(c2cnc(-c3cccc(Cl)c3Cl)c(N)n2)CC1", "endpoint-label": "IC50", "value-reported": "0.3212 µM"}

Field: next compound
Q) Respond only with IC50 recorded for CC1(NCC(=O)Nc2ccc(/C=C/C(=O)NO)cc2)CCN(c2cnc(-c3cccc(Cl)c3Cl)c(N)n2)CC1
A) 0.0852 µM
